Recorded values, source patent US20240350481A1.

- assay_explanation: T cell viability by flow cytometry
- Type: cell-based
- run_conditions: human, T cells viability (#3); Drug 100 nM
quantity_kind: viability at 4 days, 100 nM (%)
State just the number; it will be interpreted in %.

Endpoint output: viability at 4 days, 100 nM of Cc1nn(C)c(C)c1N[S+](=O)([O-])c1c(Cl)cc(-c2ccnc(N3CCNCC3)c2)cc1Cl . Value?
75

###

- assay_explanation: T cell viability by flow cytometry
- Format: cell-based
- run_conditions: human, T cells viability (#2); Drug 500 nM
quantity_kind: viability at 4 days, 500 nM (%)
Give just the numeric value; % need not be written.

For the compound Cc1nn(C)c(C)c1N[S+](=O)([O-])c1c(Cl)cc(-c2ccnc(N3CCNCC3)c2)cc1Cl , what viability at 4 days, 500 nM is on record?
65

###

Field: viability at 4 days, 20 nM. Provide a value for each of the compounds that follow.
- assay_explanation: T cell viability by flow cytometry
- Format: cell-based
- run_conditions: human, purified T cells from healthy donors, T cells viability (#1); Drug 20 nM
Numeric only. Scale: %

Using the record for Cc1c(N[S+](=O)([O-])c2c(Cl)cc(-c3ccnc(N4CCNCC4)c3)cc2Cl)c(CC(C)C)nn1C [PCLX-001] , report its viability at 4 days, 20 nM.
9

Would you kindly share the measured viability at 4 days, 20 nM for Cc1nn(C)c(C)c1CCOc1c(-c2ccc3c(c2)c(CN(C)C)nn3C)ccc(F)c1F [IMP-1088, reference compound] ?
9

###

- assay_explanation: T cell viability by flow cytometry
- Format: cell-based
- run_conditions: human, T cells viability (#1); Drug 500 nM
quantity_kind: viability at 4 days, 500 nM

Tell me the measured viability at 4 days, 500 nM of Cc1nn(C)c(C)c1N[S+](=O)([O-])c1c(Cl)cc(-c2ccnc(N3CCNCC3)c2)cc1Cl , please.
9%

###

- assay_explanation: T cell viability by flow cytometry
- Format: cell-based
- run_conditions: human, purified T cells from healthy donors, T cells viability (#3); Drug 100 nM
quantity_kind: viability at 4 days, 100 nM
Lab note: write values as number then unit, every time.

Need viability at 4 days, 100 nM, item Cc1c(N[S+](=O)([O-])c2c(Cl)cc(-c3ccnc(N4CCNCC4)c3)cc2Cl)c(CC(C)C)nn1C [PCLX-001]
71%

// query viability at 4 days, 100 nM value for entry Cc1nn(C)c(C)c1CCOc1c(-c2ccc3c(c2)c(CN(C)C)nn3C)ccc(F)c1F [IMP-1088, reference compound]
70%

###

- assay_explanation: T cell viability by flow cytometry
- Format: cell-based
- run_conditions: human, T cells viability (#2); Drug 100 nM
quantity_kind: viability at 4 days, 100 nM (%)
Only the number, expressed in %, is required.

I'd like to know its viability at 4 days, 100 nM. The compound in question is Cc1nn(C)c(C)c1N[S+](=O)([O-])c1c(Cl)cc(-c2ccnc(N3CCNCC3)c2)cc1Cl
65

###

- assay_explanation: T cell viability by flow cytometry
- Type: cell-based
- run_conditions: human, purified T cells from healthy donors, T cells viability (#2); Drug 100 nM
quantity_kind: viability at 4 days, 100 nM (%)
Note: unit % is implicit; provide only the numeric part.

viability at 4 days, 100 nM lookup needed for Cc1nn(C)c(C)c1CCOc1c(-c2ccc3c(c2)c(CN(C)C)nn3C)ccc(F)c1F [IMP-1088, reference compound] , thanks.
59

So what does the record say about viability at 4 days, 100 nM for Cc1c(N[S+](=O)([O-])c2c(Cl)cc(-c3ccnc(N4CCNCC4)c3)cc2Cl)c(CC(C)C)nn1C ?
60
